biological target: human MDM2 (GST-hMDM2 1-188), interaction with biotinylated-p53 (1-83) (Homo sapiens); construct: Amino acid residues 1-188 of human MDM2 were expressed; test: improved HTRF assay (HTRF2 assay), inhibition of HDM2-p53 interaction; details: 0.2 nM GST-hMDM2, 0.5 nM biotinylated-p53, 100 mM KF
Sequence (Q00987 1-188): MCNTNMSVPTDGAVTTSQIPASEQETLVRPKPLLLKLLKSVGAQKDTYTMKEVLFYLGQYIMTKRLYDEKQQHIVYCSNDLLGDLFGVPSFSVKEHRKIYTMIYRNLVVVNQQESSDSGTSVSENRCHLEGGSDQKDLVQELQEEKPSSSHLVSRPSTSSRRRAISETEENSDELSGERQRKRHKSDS

compound	relation-operator	IC50, nM
Cc1n[nH]c(C[C@H]2O[C@H](c3cccc(Cl)c3)[C@@H](c3ccc(Cl)cc3)N([C@H](CN(c3ccccc3F)S(=O)(=O)C3CC3)C3CC3)C2=O)n1 (single isomer, unassigned) [Example 392]	<	1
O=C(O)C[C@H]1O[C@H](c2cccc(Cl)c2)[C@@H](c2ccc(Cl)cc2)N([C@H](CS(=O)(=O)N2CCc3cc(F)ccc32)C2CC2)C1=O (single isomer, unassigned) [Example 298]	=	26
O=C(O)C[C@H]1O[C@H](c2cccc(Cl)c2)[C@@H](c2ccc(Cl)c(F)c2)N([C@H](CN(c2ccccc2F)S(=O)(=O)C2CC2)C2CC2)C1=O (single isomer, unassigned) [Example 315]	<	1
CC[C@@H](CN(C)S(=O)(=O)C1CC1)N1C(=O)[C@@H](Cc2nnn[nH]2)O[C@H](c2cccc(Cl)c2)[C@H]1c1ccc(Cl)cc1 (single isomer, unassigned)	=	1
CC(C)(C)S(=O)(=O)C[C@H](C1CC1)N1C(=O)[C@@H](CC(=O)NCC(F)(F)F)O[C@H](c2cccc(Cl)c2)[C@H]1c1ccc(Cl)cc1 (single isomer, unassigned) [Example 347]	=	4
